Recorded pIC50 for the following molecules
system: HIV-1RF; assay: Acute Infection Assay, HIV core antigen ELISA in C8166 cells; assay type: cell-based, human immunodeficiency virus; details: read-out: IC50 (Antiviral)
Scale explanation: pIC50 corresponds to minus log10 of a concentration expressed in moles per litre.

O=[N+]([O-])c1cc(Cl)c(Cl)cc1[N+](=O)[O-]	5.40

Exam item: Report pIC50 for O=[N+]([O-])c1ccc(Cl)cc1[N+](=O)[O-] [Compound E1, 1-chloro-3,4-dinitrobenzene] please.
Marked response: 5.40

====

test system: HIV-1RF; test: Acute Infection Assay, HIV core antigen ELISA in C8166 cells; format: cell-based, human immunodeficiency virus
Entry flag: Fulfilled if SI (Selectivity Index) reaches 2; Not fulfilled if it does not.

Answered cases to consult:
O=[N+]([O-])c1ccc(Cl)cc1Cl	Not fulfilled
O=[N+]([O-])c1ccc(Cl)cc1[N+](=O)[O-] [Compound E1, 1-chloro-3,4-dinitrobenzene]	Fulfilled
O=[N+]([O-])c1cc(Cl)c(Cl)cc1[N+](=O)[O-]	Not fulfilled
O=[N+]([O-])c1cccc(Cl)c1Cl	Not fulfilled
O=[N+]([O-])c1ccc(Cl)c([N+](=O)[O-])c1 [Compound E2, 1-chloro-2,4-dinitrobenzene]	Fulfilled

Exam item: decide whether the reported SI (Selectivity Index) for O=[N+]([O-])c1cc(Cl)cc(Cl)c1 is at least 2.
Marked response: Not fulfilled
